- TARGET_SYSTEM: rat α3β4 nAChRs (Rattus norvegicus, UniProt P04757+P12392)
- Construct: expressed in transfected cells; the efflux text says only stably transfected cells
- Sequence (P04757 26-499): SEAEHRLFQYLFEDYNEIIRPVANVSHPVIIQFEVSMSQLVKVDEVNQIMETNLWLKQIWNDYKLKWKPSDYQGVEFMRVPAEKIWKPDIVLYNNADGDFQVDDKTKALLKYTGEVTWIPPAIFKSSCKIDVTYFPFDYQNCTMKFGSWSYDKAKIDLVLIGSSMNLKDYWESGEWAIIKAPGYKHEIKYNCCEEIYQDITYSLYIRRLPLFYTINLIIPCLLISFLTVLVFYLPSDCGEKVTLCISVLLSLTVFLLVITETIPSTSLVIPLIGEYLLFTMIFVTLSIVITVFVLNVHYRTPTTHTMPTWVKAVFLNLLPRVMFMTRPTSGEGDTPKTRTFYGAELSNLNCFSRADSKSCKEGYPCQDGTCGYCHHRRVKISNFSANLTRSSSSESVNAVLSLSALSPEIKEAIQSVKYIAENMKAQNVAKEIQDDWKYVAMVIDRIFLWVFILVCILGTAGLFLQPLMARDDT
- Sequence (P12392 21-495): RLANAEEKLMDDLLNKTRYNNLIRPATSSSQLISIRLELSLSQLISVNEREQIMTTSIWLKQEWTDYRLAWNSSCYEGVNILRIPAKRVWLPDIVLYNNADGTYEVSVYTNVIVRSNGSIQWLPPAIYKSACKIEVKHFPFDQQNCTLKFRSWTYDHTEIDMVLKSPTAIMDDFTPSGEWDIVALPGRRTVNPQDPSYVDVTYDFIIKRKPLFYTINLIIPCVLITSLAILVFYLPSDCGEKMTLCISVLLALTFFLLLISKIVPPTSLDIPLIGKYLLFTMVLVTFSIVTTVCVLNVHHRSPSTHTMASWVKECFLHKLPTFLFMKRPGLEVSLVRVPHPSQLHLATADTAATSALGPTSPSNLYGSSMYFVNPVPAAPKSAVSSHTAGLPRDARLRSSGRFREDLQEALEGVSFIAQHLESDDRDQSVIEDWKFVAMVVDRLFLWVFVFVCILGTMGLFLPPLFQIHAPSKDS
- PROCEDURE_SUMMARY: Inhibition of nicotine-stimulated 86Rb+ efflux, cells expressing rat α3β4 nAChRs
- Format: cell-based
- DETAILS: added simultaneously with 100 μM nicotine; mean ± SEM of 3 to 7 experiments; read-out: IC50 α3β4 nAChRs, 0 min Pretreatment
ENDPOINT_LABEL: pIC50
Keep in mind that pIC50 stands for -log10 of concentration in molar terms.

Consider the compound shown here: CO[C@H]1CC=C2CCN3CCC4=C(CC(=O)OC4)[C@]23C1 [DHβE, dihydro-β-erythroidine] What is its recorded pIC50?
3.80
